- TARGET_SYSTEM: Abl (T315I) (Homo sapiens, UniProt P00519, T315I)
- Construct: purchased Upstate
- ASSAY_NAME: Abl (T315I) Kinase Assay (KinaseGlo luminescent detection of residual ATP)
- Type: biochemical
- MEASUREMENT_PARAMETERS: Abl (T315I) IC50 (nM), Abl (T315I) (Upstate, 17 ng/well), Abltide 100 uM, ATP 500 nM, 60 minutes at 37° C.
PROPERTY_LABEL: IC50 (nM)

Here is how some molecules turned out for IC50.
> print(dat)
                                item.smiles                             target.system  property.label  reported.measurement
1  O=S(=O)(c1ccc(Nc2ncc(/C=C/c3cccc(O)c3)cn2)cc1OC(F)(F)F)N1CCNCC1  Abl (T315I) (Homo sapiens, UniProt P00519, T315I)            IC50                   752
2  Cc1cc(Nc2ncc(/C=C/c3ccc4nc(N)sc4c3)cn2)ccc1S(=O)(=O)N1CCCNCC1  Abl (T315I) (Homo sapiens, UniProt P00519, T315I)            IC50                   593
3  O=S(=O)(c1ccc(Nc2ncc(/C=C/c3cccc(-c4ncc[nH]4)c3)cn2)cc1)C1CCNCC1  Abl (T315I) (Homo sapiens, UniProt P00519, T315I)            IC50                  2720

P. O=S(=O)(c1ccc(Nc2ncc(/C=C/c3cccc4[nH]ccc34)cn2)cc1)N1CCCNCC1
Q. O=S(=O)(c1ccc(Nc2ncc(/C=C/c3cccc(O)c3)cn2)cc1)C1CCNCC1
Hi there! Just curious which has the higher IC50 between P and Q . Which one? Tell me its label.
P
